Values were extracted from the supplement of paper PMC11865577.

System: TO-N3 (biotin conjugate)
Assay: pull-down binding Z-score (relative to library population); higher = stronger binding
Conditions: RNA library: Library-2
Mark TRUE for reported pull-down binding Z-score of 0.04 or greater; mark FALSE for anything smaller.

Threshold query (pull-down binding Z-score >= 0.04) on GGACCCUCUCUCUACCUCU [hsa-mir-4315-1_4315-2]
FALSE

Threshold query (pull-down binding Z-score >= 0.04) on UGGCGGCGGCGAGGACACCGCCGCU [hsa-mir-4469]
TRUE

Threshold query (pull-down binding Z-score >= 0.04) on `GGCGUUGUCCUGCUGAAAUUGUUGACACUGUGAGUGCUUUGGUUUAUGAUAAUAAGCUUAAAGCACAUAAAGACAAAUCAGCUCAAUGCU`
FALSE

Threshold query (pull-down binding Z-score >= 0.04) on GUUUGAUAGUUUAGACACAAAC [hsa-mir-3591]
TRUE

Threshold query (pull-down binding Z-score >= 0.04) on AGUGAGUACACUGGUAAUUACCAGUGUGGUCACU [SHAPE_invivo_SARS-CoV-2_Motif_119]
FALSE

Threshold query (pull-down binding Z-score >= 0.04) on GCAUGCCC [hsa-mir-1178]
TRUE

Threshold query (pull-down binding Z-score >= 0.04) on CCCAUAUGGAUUACUUUGCUAUGGA [hsa-mir-206]
FALSE

Threshold query (pull-down binding Z-score >= 0.04) on CUGUUUGUUGUCUGAGAAAAAACA [hsa-mir-520g_520h]
FALSE

Threshold query (pull-down binding Z-score >= 0.04) on GCCUCCUGGAUCUCUAGGUCUCAGGGC [hsa-mir-6744]
FALSE

Threshold query (pull-down binding Z-score >= 0.04) on GAUUUGGCUACUAACAAUC [SHAPE_invitro_SARS-CoV-2_Motif_40]
TRUE

Threshold query (pull-down binding Z-score >= 0.04) on ACCAGGAGUUUUCUGUGGUGUAGAUGCUGUAAAUUUACUUACUAAUAUGUUUACACCACUAAUUCAACCUAUUGGU [SHAPE_invitro_SARS-CoV-2_Motif_181]
FALSE

Threshold query (pull-down binding Z-score >= 0.04) on GCGCGGCCAGAAACUGGCAGCGC [mismatch-GA]
FALSE

Threshold query (pull-down binding Z-score >= 0.04) on UCGGCACUAUUGUGACUGU [hsa-mir-7855]
TRUE

Threshold query (pull-down binding Z-score >= 0.04) on UUAAUGGAGUCACAUUAA [DMSMaPseq_invitro_SARS-CoV-2_Motif_357]
TRUE

Threshold query (pull-down binding Z-score >= 0.04) on UGUUUCUUUAAUGAGGACGAAACA [hsa-mir-329-1]
TRUE

Threshold query (pull-down binding Z-score >= 0.04) on CUGCCCCUCGAAUCUGCUCCACGAUUUGGGCAG [hsa-mir-4436a]
FALSE

Threshold query (pull-down binding Z-score >= 0.04) on GCUUAUGUCAUGACCUUGGGCUACUCAGGCUGUCUGCACAAUGAGC [hsa-mir-575]
FALSE

Threshold query (pull-down binding Z-score >= 0.04) on UAUCUAUAUAUAUGUGUA [hsa-mir-3171]
FALSE

Threshold query (pull-down binding Z-score >= 0.04) on UAAUGGUUUAACUUCUAUUA [DMSMaPseq_invitro_SARS-CoV-2_Motif_100]
FALSE

Threshold query (pull-down binding Z-score >= 0.04) on `GUUUGUGUAUCUACUAGUGGUAGAUGGGUACUUAAC`
FALSE
